These data points were gathered from patent US20110046068A1.

- Target of assay: T1, human gpr-54 receptor (human, UniProt Q969F8 1-398)
- T1 construct: whole, on cells; CHO cells stably expressing the human gpr-54 receptor came from Prof; G. Vassart; also called kisspeptin receptor; AXOR12
- T1 sequence (Q969F8 whole entry): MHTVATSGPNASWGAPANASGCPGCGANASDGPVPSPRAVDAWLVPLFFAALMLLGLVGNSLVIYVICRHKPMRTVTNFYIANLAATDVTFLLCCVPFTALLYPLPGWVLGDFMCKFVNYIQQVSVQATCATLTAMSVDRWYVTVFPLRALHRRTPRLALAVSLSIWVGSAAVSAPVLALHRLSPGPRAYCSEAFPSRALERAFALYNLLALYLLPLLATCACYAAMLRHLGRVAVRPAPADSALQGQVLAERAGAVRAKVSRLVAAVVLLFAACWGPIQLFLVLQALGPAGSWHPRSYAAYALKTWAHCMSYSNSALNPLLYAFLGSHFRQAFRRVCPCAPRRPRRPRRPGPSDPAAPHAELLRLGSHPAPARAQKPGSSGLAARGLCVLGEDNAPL
- Test summary: whole-cell competition binding against 125I-kisspeptin, CHO cells stably transfected with hGPR54 (CPM); no lower plateau reached at -5 LogM [186]
Endpoint: pIC50
Recall that pIC50 is obtained by taking minus log10 of the concentration measured in molar.

Per the record, Ac-NSFGLRF-NH2 (kisspeptin-10 analogue; also called Peptide 186; acNSFGLRF) [186] has pIC50 of 5.73
